methodDescription: Partitioning coefficient of Rose Bengal, saline/1-octanol, effect of electrolyte concentration
conditionSet: Partitioning coefficient (Kp), 0.90% saline, 0.5 mg/mL RB, approx. 1 day
recordedEndpoint: Kp
// return a plain number; no unit text

Lookup: Entry O=C([O-])c1c(Cl)c(Cl)c(Cl)c(Cl)c1-c1c2cc(I)c(=O)c(I)c-2oc2c(I)c([O-])c(I)cc12.[Na+].[Na+] [RB] has what Kp?
Found: 68.2

* * *

methodDescription: Kp of RB with and without phosphate buffer
Type: physicochemical
conditionSet: solution without phosphate buffer (unbuffered); absence of phosphate buffer, pH between about 6 to about 6.5
recordedEndpoint: Kp

Lookup: Looking for the measured Kp of O=C([O-])c1c(Cl)c(Cl)c(Cl)c(Cl)c1-c1c2cc(I)c(=O)c(I)c-2oc2c(I)c([O-])c(I)cc12.[Na+].[Na+] [RB] , can you help?
Found: 66.7

Origin of values: patent US20090117199A1
